target: recombinant human CK2 (holoenzyme) (Homo sapiens, UniProt P68400); construct: purchased Millipore; assay: CK2 Kinase Assay (radiometric, [γ-33P] ATP); format: biochemical; details: final ATP concentration 15 μM, 10 min at 30° C., eight concentrations; read-out: protein kinase CK2 inhibition IC50
Sequence (P68400 whole entry): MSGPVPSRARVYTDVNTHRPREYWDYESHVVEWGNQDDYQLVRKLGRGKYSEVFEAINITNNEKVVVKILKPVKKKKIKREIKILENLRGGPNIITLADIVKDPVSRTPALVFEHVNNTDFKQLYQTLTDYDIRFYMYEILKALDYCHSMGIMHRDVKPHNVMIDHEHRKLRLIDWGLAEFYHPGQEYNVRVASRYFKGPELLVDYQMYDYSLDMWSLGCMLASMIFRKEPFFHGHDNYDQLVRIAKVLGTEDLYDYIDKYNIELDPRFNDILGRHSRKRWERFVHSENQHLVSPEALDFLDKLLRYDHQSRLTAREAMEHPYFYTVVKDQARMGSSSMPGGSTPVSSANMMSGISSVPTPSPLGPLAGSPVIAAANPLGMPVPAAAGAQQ
Sequence (P67870 whole entry partner): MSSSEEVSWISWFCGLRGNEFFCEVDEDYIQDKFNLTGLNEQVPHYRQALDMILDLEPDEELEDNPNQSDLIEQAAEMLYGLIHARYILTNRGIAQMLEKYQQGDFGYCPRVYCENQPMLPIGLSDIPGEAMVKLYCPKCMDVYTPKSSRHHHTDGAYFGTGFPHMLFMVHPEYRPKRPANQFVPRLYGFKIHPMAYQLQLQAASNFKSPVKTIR
Readout Label: IC50 (nM)

Smiles Str: Clc1cccc(Nc2c3ccncc3nc3c2nc2cnccn23)c1
Tested On: recombinant human CK2 (holoenzyme) (Homo sapiens, UniProt P68400)
Readout Label: IC50
Unit Annotation: nM
Observed: 92

###

test system: MDA-MB-231 (breast) cancer cell line; experiment: In vitro cytotoxic activity MTT assay, MDA-MB-231; format: cell-based; settings: Homo sapiens; MDA-MB-231 (breast) cells, exposed for 96 hours; read-out: IC50, concentration of compound eliciting a 50% inhibition of cell proliferation
pIC50: −log10 of the molar value.

Smiles Str: Clc1cccc(Nc2c3ccncc3nc3c2nc2cnccn23)c1
pIC50: 5.30
